// provenance: patent US9695155B2

# Tested on: blackgrass
# assay name: Test A postemergence
# Format: in vivo, Alopecurus myosuroides
# measurement conditions: 31 g ai/ha, 0 to 100 scale, 0 no effect, 100 complete control
assay metric: Plant response rating, Blackgrass
Would you mind answering with just the numeric figure?

Some solved cases for reference:
INSERT INTO assay_data (record_smiles, system_tested, value_reported) VALUES
  ('CC(C)Oc1cnn(-c2c(C#N)cccc2Oc2ncc(Br)cn2)c1', 'blackgrass', 0),
  ('FCc1cccc(Oc2ncc(F)cn2)c1-n1cc(C(F)(F)F)cn1', 'blackgrass', 60);

Clc1cnc(Oc2ccccc2-n2cccc2)nc1 yielded Plant response rating, Blackgrass of 0

According to the records, this compound N#Cc1cccc(Oc2ncc(Cl)cn2)c1-n1cnc(C(F)(F)F)c1 displays Plant response rating, Blackgrass of 10

The compound CC(C)Oc1cnn(-c2c(Br)cccc2Oc2ncc(Cl)cn2)c1 showed Plant response rating, Blackgrass equal to 0

For FCc1cccc(Oc2ncc(Cl)cn2)c1-n1cc(C(F)(F)F)cn1 the compound record lists Plant response rating, Blackgrass as 40

Per the records, this compound ( Fc1cccc(Oc2ncc(Cl)cn2)c1-n1cc(C2CCCC2)nn1 ) has Plant response rating, Blackgrass equal to 30

###

# Test system: dayflower
# assay name: Test E preemergence
# Type: in vivo, Commelina virginica
# measurement conditions: 31 g ai/ha, scale 0 to 100 (0 no effect, 100 complete control)
assay metric: Dayflower, VA plant response rating
Please respond with just the number, no unit label.

INSERT INTO assay_data (record_smiles, assay_metric, value_reported) VALUES
  ('N#Cc1cnn(-c2c(C#N)cccc2Oc2ncc(F)cn2)c1', 'Dayflower, VA plant response rating', 0);

Record N#Cc1cccc(Oc2ncc(Br)cn2)c1-n1cc(C(F)(F)F)cn1 ; system dayflower; Dayflower, VA plant response rating = 5

For FC(F)(F)c1cnn(-c2ccccc2Oc2ncc(Cl)cn2)c1 on dayflower, measured Dayflower, VA plant response rating was 0

Observed Dayflower, VA plant response rating, dayflower, N#Cc1cccc(Oc2ncc(Cl)cn2)c1-n1cc(C(F)(F)F)cn1 : 20

###

Measured Plant response rating, Galium, listed per entry for reference.
# Test system: galium
# assay name: Test A postemergence
# Format: in vivo, Galium aparine
# measurement conditions: 125 g ai/ha, 0 to 100 scale, 0 no effect, 100 complete control
Just the number, please, no unit attached.

INSERT INTO measurements (record_smiles, assay_metric, value_reported) VALUES
  ('CC(C)Oc1cnn(-c2c(C#N)cccc2Oc2ncc(Br)cn2)c1', 'Plant response rating, Galium', 100),
  ('N#Cc1cccc(Oc2ncc(Cl)cn2)c1-n1cc(-n2ccc(C(F)(F)F)n2)cn1', 'Plant response rating, Galium', 20),
  ('N#Cc1cnn(-c2c(CF)cccc2Oc2ncc(Cl)cn2)c1', 'Plant response rating, Galium', 30);

For this molecule ( Cc1cc(C)n(-c2ccccc2Oc2ncc(Cl)cn2)n1 ), measured Plant response rating, Galium is 0

###

# System: giant foxtail
# assay name: Test A preemergence
# Format: in vivo, Setaria faberii
# measurement conditions: 125 g ai/ha, 0 to 100 scale where 0 is no effect and 100 is complete control
Mark fulfilled for reported Plant response rating, Foxtail, Giant of 20 or greater; mark not fulfilled for anything smaller.

INSERT INTO assay_data (molecule, answer_label) VALUES
  ('CCCc1cnc(Oc2cccc(C#N)c2-n2cc(Br)cn2)nc1 [Compound 131]', 'not fulfilled');

## Input Hi team, for CCOc1cnn(-c2c(C#N)cccc2Oc2ncc(Cl)cn2)c1 [Compound 92] , is the recorded Plant response rating, Foxtail, Giant at or above 20?
## Output fulfilled
